All figures here come from paper PMC6792352.

protocol-details: in vitro
condition-set: rat, gh3-tre-luc cells, AC50 (uM) modified / 1000
Where a name gives a salt, the structure may show the parent alone.
recorded-endpoint: CC50 at 24 h

molecule="Nc1nc(/C(=C/CC(=O)O)C(=O)N[C@@H]2C(=O)N3C(C(=O)O)=CCS[C@H]23)cs1 [Ceftibuten]" recorded_endpoint="CC50 at 24 h" result_value="> 50 µM"
molecule="CN(C)CCCN [3-(Dimethylamino)propylamine]" recorded_endpoint="CC50 at 24 h" result_value="> 90 µM"
molecule="Cc1ccc(N=Nc2c(O)c(C(=O)O)cc3ccccc23)c(S(=O)(=O)O)c1 [D&C Red No. 7]" recorded_endpoint="CC50 at 24 h" result_value="27.6 µM"
molecule="Cc1c(-c2ccccc2)oc2c(C(=O)OCCN3CCCCC3)cccc2c1=O [Flavoxate hydrochloride]" recorded_endpoint="CC50 at 24 h" result_value="> 20 µM"

Please state CC50 at 24 h for every molecule in the list that follows.
1. CC[N+]1(CC)CCC(=C(c2ccccc2)c2ccccc2)C1C (stereo not drawn) [Prifinium bromide]
2. CN(C)CCCOc1nn(Cc2ccccc2)c2ccccc12 [Benzydamine hydrochloride]
3. COc1nccnc1NS(=O)(=O)c1ccc(N)cc1 [Sulfalene]
4. N[C@@H](Cc1cc(I)c(O)c(I)c1)C(=O)O [3,5-diiodo-L-tyrosine]
5. BrC(Br)C(Br)Br [1,1,2,2-Tetrabromoethane]

Result:
> 50 µM
6.35 µM
> 50 µM
> 50 µM
> 90 µM

---

protocol-details: in vitro
condition-set: rat, gh3-tre-luc cells, AC50 (uM) modified / 1000
recorded-endpoint: CC50 at 24 h

Use the examples below as a reference point.
compound="CCCCC(CC)COC(=O)c1ccc(C(=O)OCC(CC)CCCC)c(C(=O)OCC(CC)CCCC)c1 (stereo not shown) [Tris(2-ethylhexyl) trimellitate]" recorded_endpoint="CC50 at 24 h" result_value="> 90 µM"
compound="O=S(=O)(O)c1cccc2ccccc12 [Sodium 1-naphthalenesulfonate]" recorded_endpoint="CC50 at 24 h" result_value="> 90 µM"
compound="NNc1nc(-c2ccc(N)cc2)cs1 [2-Hydrazino-4-(4-aminophenyl) thiazole]" recorded_endpoint="CC50 at 24 h" result_value="74.8 µM"
compound="CN[C@]1(c2ccccc2Cl)CCCCC1=O [(S)-Ketamine]" recorded_endpoint="CC50 at 24 h" result_value="> 50 µM"

Below is a list of compounds. For each, state its recorded CC50 at 24 h.
1. CC1(C)C(O)C(C)(C)C1O (stereo not shown) [2,2,4,4-Tetramethylcyclobutane-1,3-diol]
2. OCCOc1ccccc1 [2-Phenoxyethanol]
3. CC(=O)O[C@]1(C(C)=O)CC[C@H]2[C@@H]3C=C(Cl)C4=CC(=O)[C@@H]5C[C@@H]5[C@]4(C)[C@H]3CC[C@@]21C [Cyproterone acetate]

Result:
1: > 90 µM; 2: > 90 µM; 3: 66.8 µM

---

Assignment: determine reported CC50 at 24 h for the given compounds.
protocol-details: in vitro
condition-set: rat, gh3-tre-luc cells, AC50 (uM) modified / 1000

compound="CCCC(=O)OCCC(C)CCC=C(C)C (stereo not shown) [Citronellyl butyrate]" recorded_endpoint="CC50 at 24 h" result_value="> 90 µM"
compound="CN(C)C=O [N,N-Dimethylformamide]" recorded_endpoint="CC50 at 24 h" result_value="> 90 µM"
compound=O=c1oc2c(O)c(O)cc3c(=O)oc4c(O)c(O)cc1c4c23 recorded_endpoint="CC50 at 24 h" result_value="> 50 µM"

Attention now turns to another entry.
Query: May I ask what CC50 at 24 h has been recorded for Cc1ccc(S(=O)(=O)NC2CCCCC2)cc1 [N-Cyclohexyl-4-methylbenzenesulfonamide] ?
Result: > 90 µM

---

Kindly supply the reported CC50 at 24 h values for the records listed here.
protocol-details: in vitro
condition-set: rat, gh3-tre-luc cells, AC50 (uM) modified / 1000

molecule="CC(=O)O[C@H]1C[C@@H]2CC[C@@H]3[C@H](CC[C@@]4(C)[C@H]3C[C@H]([N+]3(C)CCCCC3)[C@@H]4OC(C)=O)[C@@]2(C)C[C@@H]1N1CCCCC1 [Vecuronium bromide]" result_value="> 50 µM"
molecule=OCCN(CCO)c1ccccc1 result_value="> 90 µM"
molecule=NC(=O)Nc1ccc(Cl)c(Cl)c1 result_value="> 90 µM"

Hey, quick one: what's CC50 at 24 h for each of these?
1. O=C(O)/C=C(\CC(=O)O)C(=O)O [trans-Aconitic acid]
2. Cc1ccccc1NC(=N)NC(=N)N [1-(o-Tolyl)biguanide]

Result:
> 50 µM
> 90 µM

---

protocol-details: in vitro
condition-set: rat, gh3-tre-luc cells, AC50 (uM) modified / 1000
Structures can show the parent of a compound that is named as a salt.
Provide the recorded CC50 at 24 h for the entries that follow.

Some molecules with recorded CC50 at 24 h:
molecule="CCOC(=O)[C@H](CCc1ccccc1)N[C@@H](C)C(=O)N1Cc2cc(OC)c(OC)cc2C[C@H]1C(=O)O [Moexipril hydrochloride]" result_value="> 50 µM"
molecule=c1ccc2c(c1)-c1cccc3c1c-2cc1ccccc13 result_value="> 90 µM"
molecule=COc1ccc([N+](=O)[O-])cc1N result_value="> 90 µM"
molecule=Cc1ccc(O)c([C@H](CCN(C(C)C)C(C)C)c2ccccc2)c1 result_value="18.9 µM"
molecule=O=C(Nc1ccccc1)Nc1ccnc(Cl)c1 result_value="64.7 µM"

Batch of 5 molecules: report CC50 at 24 h for each.
1. CCCCC(CC)COC(=O)c1ccccc1O (stereo not drawn) [2-Ethylhexyl salicylate]
2. CC(C)C[C@@H]1NC(=O)[C@H](CCCN)NC(=O)[C@H](C(C)C)NC(=O)[C@H](Cc2ccc(O)cc2)N[C@@H](CCC(=O)O)C(=O)N[C@@H](CC(N)=O)C(=O)[C@@H](Cc2ccccc2)NC(=O)[C@H](Cc2ccccc2)NC(=O)[C@@H]2CCCN2C(=O)[C@@H](Cc2ccccc2)NC1=O
3. O=[N+]([O-])NC1=NCCN1Cc1ccc(Cl)nc1
4. Cc1cc(=O)nc(C(C)C)[nH]1
5. CC[N+](C)(CC)CC

Result:
1. > 50 µM
2. 1.25 µM
3. > 90 µM
4. > 90 µM
5. > 90 µM

---

protocol-details: in vitro
condition-set: rat, gh3-tre-luc cells, AC50 (uM) modified / 1000
Counter-ions that a name gives are not always drawn.
recorded-endpoint: CC50 at 24 h

molecule="IC(I)=C(I)I [Tetraiodoethene]" recorded_endpoint="CC50 at 24 h" result_value="8.53 µM"

Consider the following items and state reported CC50 at 24 h for each.
1. Cc1cc(C(C#N)c2ccc(Cl)cc2)c(Cl)cc1NC(=O)c1cc(I)cc(I)c1O (stereo not shown) [Closantel]
2. C[C@]12C=CC(=O)C=C1CC[C@H]1[C@@H]3C[C@@H](O)[C@](O)(C(=O)CO)[C@@]3(C)C[C@H](O)[C@@]12F [Triamcinolone]
3. CO/N=C(\C(=O)N[C@@H]1C(=O)N2C(C(=O)[O-])=C(C[n+]3cccc4c3CCC4)CS[C@H]12)c1csc(N)n1 [Cefpirome sulfate]
4. CC(C)(C)C(=O)NCCCC(=O)O [Pivagabine]
5. OC[C@@H](O)C(O)[C@H](O)CO [D-Arabinitol]
6. Fc1ccc(C(c2ccc(F)cc2)N2CCN(C/C=C/c3ccccc3)CC2)cc1 [Flunarizine]

Result:
25 µM
> 90 µM
> 50 µM
> 50 µM
> 50 µM
12.3 µM

---

protocol-details: in vitro
condition-set: rat, gh3-tre-luc cells, AC50 (uM) modified / 1000
Where a name gives a salt, the structure may show the parent alone.
For each record, write down the corresponding CC50 at 24 h.

# count of solved cases: 8
compound="CC(C)(C)NCC(O)c1cc(Cl)c(N)c(C(F)(F)F)c1 (stereo not drawn) [Mabuterol hydrochloride]" result_value="22.3 µM"
compound="CC/C=C\\C/C=C\\C/C=C\\CCCCCCCC(=O)OCC [Ethyl linolenate]" result_value="> 90 µM"
compound=CC(C)N(Cc1ccccc1)C(=O)C(C)(C)C result_value="> 90 µM"
compound="CCCCC(CC)COC(=O)CCCCCCCC(=O)OCC(CC)CCCC (stereo not drawn) [Bis(2-ethylhexyl) nonanedioate]" result_value="> 90 µM"
compound=O=C(O)CCCCCCCCCCC(=O)O result_value="> 90 µM"
compound="COCC(C)N(C(=O)CCl)c1c(C)csc1C (stereo not drawn)" result_value="> 90 µM"
compound="O=C(NC(O)C(Cl)(Cl)Cl)NC(O)C(Cl)(Cl)Cl (stereo not drawn)" result_value="> 50 µM"
compound="C[N+](C)(C)Cc1ccccc1 [Benzyltrimethylammonium chloride]" result_value="> 90 µM"

Please look at the following compound next.
Query: Give the measured CC50 at 24 h of NC(=O)C(c1ccccc1)(c1ccccc1)[C@@H]1CCN(CCc2ccc3c(c2)CCO3)C1 [Darifenacin hydrobromide] .
Result: 14.7 µM
